Reference for the values: patent US20210301026A1

# measured-on: T1, monomeric human CSF1R ectodomain protein (human, UniProt P07333 20-517)
# T1 construct: also called biotinylated monomeric human CSF1R
# assay-remarks: SPR Biacore, IgG captured, monomeric CSF1R analyte
experimental-endpoint: Kd (nM)

MH17 (antibody, human IgG4, V domains shown, Deimmunized MH5 derivative, human IgG4(S228P)/Ckappa IgG) VH: QVQLVQSGAEVKKPGSSVKVSCKASGYTFSSAYMIWVRQAPGQGLEWMGDINPYNGGANYAQKFQGRVTITADESTSTAYMELSSLRSEDTAVYYCAREGPYFSNLYVMDYWGQGTLVTVSS VL: EIVLTQSPATLSLSPGERATLSCRASQSVSYEGENYLNWYQQKPGQAPRLLIYAASNRATGIPARFSGSGSGTDFTLTISSPEPEDFAVYYCQLSNEDLLTFGGGTKVEIK ... 0.834
MH10 (antibody, human IgG4, V domains shown, Deimmunized MH5 derivative, human IgG4(S228P)/Ckappa IgG) VH: QVQLVQSGAEVKKPGSSVKVSCKASGYTFSSNYMIWVRQAPGQGLEWMGDINPYNGGANYAQKFQGRVTITADESTSTAYMELSSLRSEDTAVYYCAREGPYFSNLYVMDYWGQGTLVTVSS VL: EIVLTQSPATLSLSPGERATLSCRASQSVSYEGENYLNWYQQKPGQAPRSAIYAASNRATGIPARFSGSGSGTDFTLTISSPEPEDFAVYYCQLSNEDLLTFGGGTKVEIK ... 0.624
MH29 (antibody, human IgG4, V domains shown, Deimmunized MH5 derivative, human IgG4(S228P)/Ckappa IgG) VH: QVQLVQSGAEVKKPGSSVKVSCKASGYTFSSNYMIWVRQAPGQGLEWMGDINPYNGGANYAQKFQGRVTITADESTSTAYMELSSLRSEDTAVYYCAREGPYFSNLYVMDYWGRGTLVTVSS VL: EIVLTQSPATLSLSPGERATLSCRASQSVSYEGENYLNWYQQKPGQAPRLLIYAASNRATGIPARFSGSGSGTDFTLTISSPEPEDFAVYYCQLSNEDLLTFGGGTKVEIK ... 0.562
